- System: Staphylococcus aureus
- TEST NAME: Antibacterial activity against Staphylococcus aureus UC 9218 in presence of 10% human serum
- Format: functional
PARAMETER MEASURED: MIC (µg/mL)

N#Cc1ccc(NC(=O)c2nc(-c3ccccc3)cs2)c(C(=O)O)c1 = 32
N#Cc1ccc(NC(=O)c2cc(-c3ccccc3)no2)c(C(=O)O)c1 = 8
N#Cc1ccc(NC(=O)c2cc3cccnc3s2)c(C(=O)O)c1 = 32
N#Cc1ccc(NC(=O)c2cc3ccccc3[nH]2)c(C(=O)O)c1 = 32

[a] N#Cc1ccc(NC(=O)c2noc3ccccc23)c(C(=O)O)c1
[b] N#Cc1ccc(NC(=O)c2noc(-c3ccccc3)n2)c(C(=O)O)c1
[c] N#Cc1ccc(NC(=O)c2nc3ccccc3s2)c(C(=O)O)c1
[d] N#Cc1ccc(NC(=O)c2cc(SCc3ccccc3)on2)c(C(=O)O)c1
[e] Cc1coc2cnc(C(=O)Nc3ccc(C#N)cc3C(=O)O)cc12
Hello, I need these entries ordered by MIC, highest reading first. Thanks! A complete answer lists every label in the requested sequence.
e, b, a, c, d

[1] N#Cc1ccc(NC(=O)c2ncc(-c3ccccc3)s2)c(C(=O)O)c1
[2] N#Cc1ccc(NC(=O)c2cc(-c3ccccc3)on2)c(C(=O)O)c1
Which has the higher MIC, 1 or 2 ? When you have decided, please share the label of that item.
1
(1: 16 µg/mL, 2: 8 µg/mL)

[P] N#Cc1ccc(NC(=O)c2nsc(-c3ccccc3)c2Cl)c(C(=O)O)c1
[Q] N#Cc1ccc(NC(=O)c2ncc(-c3ccccc3)o2)c(C(=O)O)c1
I'm curious, which of these has a smaller MIC number: P or Q ? Answer by stating the label of the chosen item.
Q
